# study system: T1, Recombinant human CD33 protein (human, UniProt P20138 18-259)
# T1 construct: Obtained commercially; also called huCD33
# T1 sequence (P20138 18-259 limits assumed): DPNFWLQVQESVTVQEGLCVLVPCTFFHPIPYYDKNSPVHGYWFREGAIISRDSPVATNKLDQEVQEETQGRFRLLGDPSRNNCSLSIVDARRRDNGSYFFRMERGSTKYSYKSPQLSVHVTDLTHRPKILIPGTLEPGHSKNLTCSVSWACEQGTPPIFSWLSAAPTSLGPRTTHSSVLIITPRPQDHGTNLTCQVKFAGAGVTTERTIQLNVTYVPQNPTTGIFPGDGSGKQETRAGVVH
# experimental protocol: SPR (BIACORE T200), crude sdAb captured via affinity tag, 100 nM human CD33 as analyte
measured metric: binding result

1) AS67147 sdAb (VHH, Camel sdAb) VHH: EVQLVESGGGLVQAGGSLRLSCAASGDTFSFAAMGWYRQAPGKQRELVASISFSGGESTVYANSVRGRFTISGDNAKNRVSLEMNNLKPEDTAVYYCTAKRGPYLPGPEYWGQGTQVTVSS ... binds
2) AS58930 sdAb (VHH, Camel sdAb; also called AS58930C) VHH: AVQLVESGGGLVQAGGSLRLSCTASGSILRTYEMGWYRQAPGSQRELVASITSDGDTNYVDSVKGRFTISRDNGKNMVYLQMNSLKPDDTAVYYCNAVILSPSYSMRTSHWGQGTQVTVSS ... binds
3) AS49814 sdAb (VHH, Camel sdAb) VHH: QIQLVESGGGSVQAGGSLRLSCVASGYIGGHYYMGWFRQAPGKEREGVAAIDIDSDGRTRYAGSVQGRFTISQDNAKNTLHLQMSSLKPEDTGMYYCAVGVGWVPARLTPQAVSYWGKGTLVTVSS ... binds
